- test.summary: Drug uptake in FVB mouse brain at 1 mg/kg, po at 3 hrs
- Format: ADME, organism-based
- Parameters: dose 1 mg/kg, route oral
- conditions: read-out: Drug uptake
endpoint: concentration at 3 h (nM)

{"smiles.notation": "O=S(=O)(c1ccc(C(F)(F)F)nc1)N1c2ccc(F)cc2-c2n[nH]cc2[C@H]1C1CC1", "endpoint": "concentration at 3 h", "endpoint.result": 45}
{"smiles.notation": "O=S(=O)(c1ccc(C(F)(F)F)cc1)N1c2cc(F)c(F)cc2-c2n[nH]cc2[C@H]1C1CC1", "endpoint": "concentration at 3 h", "endpoint.result": 120}

* * *

- test.summary: Drug uptake in FVB mouse brain at 10 mg/kg, po at 3 hrs
- Type: ADME, organism-based
- Design: dose 10 mg/kg, route oral
- conditions: read-out: Drug uptake

{"smiles.notation": "O=S(=O)(c1ccc(C(F)(F)F)nc1)N1c2ccc(F)cc2-c2n[nH]cc2[C@H]1C1CC1", "concentration at 3 h / nM": 1000}
{"smiles.notation": "O=S(=O)(c1ccc(C(F)(F)F)cc1)N1c2cc(F)c(F)cc2-c2n[nH]cc2[C@H]1C1CC1", "concentration at 3 h / nM": 2100}

* * *

- System: Liver microsomes
- test.summary: Glucuronidation metabolism in human liver microsomes assessed as compound remaining
- Assay type: ADME, Microsome

{"compound": "O=S(=O)(c1ccc(C(F)(F)F)cc1)N1c2cc(F)c(F)cc2-c2n[nH]cc2[C@H]1C1CC1", "Stability": "90%"}
{"compound": "CC(C)[C@@H]1c2c[nH]nc2-c2cc(F)c(F)cc2N1S(=O)(=O)c1ccc(C(F)(F)F)cc1", "Stability": "76%"}
{"compound": "O=S(=O)(c1ccc(F)cc1)N1c2cc(F)c(F)cc2-c2n[nH]cc2[C@H]1C1CC1", "Stability": "75%"}
{"compound": "O=S(=O)(c1ccc(C(F)(F)F)nc1)N1c2ccc(F)cc2-c2n[nH]cc2[C@H]1C1CC1", "Stability": "91%"}
{"compound": "O=S(=O)(c1ccc(Cl)cc1)N1[C@H]2CCC[C@@H]1c1cn[nH]c1C2", "Stability": "0%"}
{"compound": "O=S(=O)(c1ccc(Cl)cc1)N1Cc2c[nH]nc2-c2ccc(F)cc21", "Stability": "3%"}
{"compound": "CC[C@H]1Cc2n[nH]cc2[C@@H](CC)N1S(=O)(=O)c1ccc(Cl)cc1 [ENT A]", "Stability": "1%"}
{"compound": "O=S(=O)(N[C@H](CO)C(C(F)(F)F)C(F)(F)F)c1ccc(Cl)s1 [BEGACESTAT]", "Stability": "75%"}
{"compound": "C[C@@H]1c2c[nH]nc2-c2cc(F)c(F)cc2N1S(=O)(=O)c1ccc(C(F)(F)F)cc1", "Stability": "80%"}

* * *

- test.summary: Aqueous solubility of the compound
- Format: physicochemical
- conditions: buffer
This listing pairs molecules with measured solubility.
endpoint: solubility

{"smiles.notation": "O=S(=O)(c1ccc(C(F)(F)F)cc1)N1c2cc(F)c(F)cc2-c2n[nH]cc2[C@H]1C1CC1", "endpoint": "solubility", "endpoint.result": "3 µg/mL"}
{"smiles.notation": "O=S(=O)(c1ccc(C(F)(F)F)nc1)N1c2ccc(F)cc2-c2n[nH]cc2[C@H]1C1CC1", "endpoint": "solubility", "endpoint.result": "100 µg/mL"}
